Target: Human Cav 2.2 channels (Homo sapiens)
Sequence (Q00975 whole entry): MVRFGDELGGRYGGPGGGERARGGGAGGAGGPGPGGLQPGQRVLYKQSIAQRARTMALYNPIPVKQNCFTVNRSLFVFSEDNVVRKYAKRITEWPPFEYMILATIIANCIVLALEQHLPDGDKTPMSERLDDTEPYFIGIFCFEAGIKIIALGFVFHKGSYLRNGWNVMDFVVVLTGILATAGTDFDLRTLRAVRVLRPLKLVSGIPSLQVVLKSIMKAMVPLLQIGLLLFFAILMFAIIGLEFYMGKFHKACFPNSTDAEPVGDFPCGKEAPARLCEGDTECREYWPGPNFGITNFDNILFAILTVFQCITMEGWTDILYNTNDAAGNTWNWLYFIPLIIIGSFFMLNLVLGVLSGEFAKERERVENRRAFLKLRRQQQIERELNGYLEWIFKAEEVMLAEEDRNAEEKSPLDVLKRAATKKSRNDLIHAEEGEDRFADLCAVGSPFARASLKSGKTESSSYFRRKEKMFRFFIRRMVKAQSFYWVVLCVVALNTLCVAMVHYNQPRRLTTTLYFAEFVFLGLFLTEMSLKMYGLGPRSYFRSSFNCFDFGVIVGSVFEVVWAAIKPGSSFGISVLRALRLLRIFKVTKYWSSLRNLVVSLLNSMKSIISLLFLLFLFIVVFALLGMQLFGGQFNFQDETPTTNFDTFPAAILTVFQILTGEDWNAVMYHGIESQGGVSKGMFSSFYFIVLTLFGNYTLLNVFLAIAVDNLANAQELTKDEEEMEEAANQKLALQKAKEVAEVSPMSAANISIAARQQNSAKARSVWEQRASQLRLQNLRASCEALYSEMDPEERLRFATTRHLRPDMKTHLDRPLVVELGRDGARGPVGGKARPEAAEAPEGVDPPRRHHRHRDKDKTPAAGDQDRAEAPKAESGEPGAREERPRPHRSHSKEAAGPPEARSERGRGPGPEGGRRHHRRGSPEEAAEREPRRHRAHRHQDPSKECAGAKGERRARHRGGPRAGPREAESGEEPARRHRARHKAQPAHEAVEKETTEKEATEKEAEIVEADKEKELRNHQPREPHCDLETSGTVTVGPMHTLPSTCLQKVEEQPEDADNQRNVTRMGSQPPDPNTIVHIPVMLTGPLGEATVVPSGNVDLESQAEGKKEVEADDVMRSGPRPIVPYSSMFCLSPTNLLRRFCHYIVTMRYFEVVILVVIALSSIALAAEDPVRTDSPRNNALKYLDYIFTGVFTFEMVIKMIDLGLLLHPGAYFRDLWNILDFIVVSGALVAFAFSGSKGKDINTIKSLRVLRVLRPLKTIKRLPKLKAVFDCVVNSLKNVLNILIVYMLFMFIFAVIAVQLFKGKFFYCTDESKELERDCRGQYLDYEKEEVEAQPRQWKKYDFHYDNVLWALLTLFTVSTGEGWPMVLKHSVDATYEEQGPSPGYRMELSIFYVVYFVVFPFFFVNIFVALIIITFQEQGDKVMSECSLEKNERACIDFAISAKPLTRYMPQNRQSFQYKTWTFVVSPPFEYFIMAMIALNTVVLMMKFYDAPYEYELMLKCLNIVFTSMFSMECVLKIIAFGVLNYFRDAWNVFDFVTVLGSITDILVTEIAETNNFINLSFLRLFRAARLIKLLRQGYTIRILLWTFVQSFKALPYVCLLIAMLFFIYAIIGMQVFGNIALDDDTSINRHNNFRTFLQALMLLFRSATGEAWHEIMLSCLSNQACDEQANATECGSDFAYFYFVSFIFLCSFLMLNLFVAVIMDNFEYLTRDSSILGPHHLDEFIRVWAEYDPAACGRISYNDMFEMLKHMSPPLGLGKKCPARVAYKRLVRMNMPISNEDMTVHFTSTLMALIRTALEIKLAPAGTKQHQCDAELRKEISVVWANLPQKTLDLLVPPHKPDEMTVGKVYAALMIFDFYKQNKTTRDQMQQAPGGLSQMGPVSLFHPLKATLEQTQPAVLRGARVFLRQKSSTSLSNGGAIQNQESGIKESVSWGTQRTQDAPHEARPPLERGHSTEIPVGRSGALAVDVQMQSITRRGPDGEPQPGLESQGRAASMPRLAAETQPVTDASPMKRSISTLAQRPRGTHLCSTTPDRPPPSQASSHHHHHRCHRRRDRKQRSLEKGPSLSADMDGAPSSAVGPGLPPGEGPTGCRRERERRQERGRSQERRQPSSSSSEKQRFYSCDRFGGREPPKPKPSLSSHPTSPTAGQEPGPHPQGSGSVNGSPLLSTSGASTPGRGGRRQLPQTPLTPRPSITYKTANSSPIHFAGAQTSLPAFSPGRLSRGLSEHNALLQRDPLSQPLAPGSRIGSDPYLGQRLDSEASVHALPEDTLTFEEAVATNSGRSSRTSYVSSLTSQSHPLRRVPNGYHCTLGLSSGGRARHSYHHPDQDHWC
Sequence (P54289 25-1103 partner): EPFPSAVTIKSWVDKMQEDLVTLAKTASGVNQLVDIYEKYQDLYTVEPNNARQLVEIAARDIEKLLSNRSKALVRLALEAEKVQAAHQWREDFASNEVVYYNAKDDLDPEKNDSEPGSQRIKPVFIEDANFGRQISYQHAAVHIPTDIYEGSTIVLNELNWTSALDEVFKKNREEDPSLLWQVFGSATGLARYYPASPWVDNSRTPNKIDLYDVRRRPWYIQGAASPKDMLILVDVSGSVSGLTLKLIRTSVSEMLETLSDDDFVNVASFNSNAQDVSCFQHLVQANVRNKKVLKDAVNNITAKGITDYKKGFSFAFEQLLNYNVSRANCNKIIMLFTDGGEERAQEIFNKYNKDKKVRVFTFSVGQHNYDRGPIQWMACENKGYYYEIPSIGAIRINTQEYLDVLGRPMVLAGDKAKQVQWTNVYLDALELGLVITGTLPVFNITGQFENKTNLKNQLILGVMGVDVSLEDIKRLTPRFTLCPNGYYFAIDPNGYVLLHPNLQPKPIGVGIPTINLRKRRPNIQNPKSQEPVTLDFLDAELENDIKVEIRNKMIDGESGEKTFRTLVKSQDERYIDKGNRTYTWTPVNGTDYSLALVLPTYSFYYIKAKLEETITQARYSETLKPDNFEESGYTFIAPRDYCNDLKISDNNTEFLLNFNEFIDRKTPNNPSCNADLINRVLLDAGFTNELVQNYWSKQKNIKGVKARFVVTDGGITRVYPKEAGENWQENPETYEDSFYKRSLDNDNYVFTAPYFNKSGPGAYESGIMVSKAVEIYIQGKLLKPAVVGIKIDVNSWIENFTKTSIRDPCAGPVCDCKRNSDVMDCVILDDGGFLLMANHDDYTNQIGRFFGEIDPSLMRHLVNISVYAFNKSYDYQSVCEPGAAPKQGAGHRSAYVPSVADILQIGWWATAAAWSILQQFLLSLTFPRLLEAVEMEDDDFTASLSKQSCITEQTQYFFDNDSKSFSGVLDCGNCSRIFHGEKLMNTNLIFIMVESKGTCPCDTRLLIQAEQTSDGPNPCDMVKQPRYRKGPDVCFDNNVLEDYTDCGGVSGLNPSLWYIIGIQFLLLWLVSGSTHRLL
Sequence (P54284 whole entry partner): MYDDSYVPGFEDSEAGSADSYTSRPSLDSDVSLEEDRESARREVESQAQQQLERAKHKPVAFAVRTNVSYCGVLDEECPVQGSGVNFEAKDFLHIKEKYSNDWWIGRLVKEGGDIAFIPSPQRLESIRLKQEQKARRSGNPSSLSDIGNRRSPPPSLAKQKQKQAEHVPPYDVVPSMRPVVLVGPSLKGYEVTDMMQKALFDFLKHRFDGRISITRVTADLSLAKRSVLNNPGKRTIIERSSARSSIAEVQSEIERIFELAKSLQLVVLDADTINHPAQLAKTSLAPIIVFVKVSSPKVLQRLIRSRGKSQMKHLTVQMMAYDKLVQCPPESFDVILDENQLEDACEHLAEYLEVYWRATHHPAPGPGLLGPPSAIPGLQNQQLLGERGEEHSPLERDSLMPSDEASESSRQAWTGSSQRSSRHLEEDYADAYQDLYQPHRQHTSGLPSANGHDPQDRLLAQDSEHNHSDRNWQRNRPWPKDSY
Assay: Fluorescent assay for CaV2.2 channels using potassium depolarization (VIPR/FLIPR)
Format: cell-based
Conditions: FLIPR data; inactivated state; read-out: CAv2.2 IC50 Inact.
pIC50: −log10 of the molar value.
Recorded pIC50 for the following compounds
MEASUREMENT TYPE: pIC50

>>> print(df.to_string())
                          structure_notation                              tested_on  operator  recorded_measurement
 0  CC(C)(C[C@H]1C[C@@H](NC(=O)[C@@H]2CCCC[C@H]2N)C1)S(=O)(=O)c1cccc(C(F)(F)F)c1  Human Cav 2.2 channels (Homo sapiens)         =                  5.88
 1  CC(C)S(=O)(=O)c1cc(C(F)(F)F)cnc1C(=O)N[C@H]1C[C@H](C(C)(C)S(=O)(=O)c2cccc(OC(F)(F)F)c2)C1  Human Cav 2.2 channels (Homo sapiens)         =                  6.68
 2  O=C(c1ccc(OCC(F)(F)F)nc1)N1CC(CS(=O)(=O)c2cc(F)cc(C(F)(F)F)c2)C1  Human Cav 2.2 channels (Homo sapiens)         =                  5.30
 3  CC(C)(C[C@H]1C[C@@H](NC(=O)c2ccc(C(F)(F)F)cc2)C1)S(=O)(=O)c1cccc(C(F)(F)F)c1  Human Cav 2.2 channels (Homo sapiens)         =                  7.22
 4  CC(C)([C@H]1C[C@@H](CNC(=O)c2ccnc(C(F)(F)F)n2)C1)S(=O)(=O)c1cccc(C(F)(F)F)c1  Human Cav 2.2 channels (Homo sapiens)         =                  6.59
 5  N[C@@H]1CCCC[C@H]1C(=O)NC[C@H]1C[C@H](S(=O)(=O)c2cccc(OC(F)(F)F)c2)C1  Human Cav 2.2 channels (Homo sapiens)         =                  5.64
 6  CNC1(CC(=O)N[C@H]2C[C@@H](C(C)(C)S(=O)(=O)c3cc(F)cc(C(F)(F)F)c3)C2)CCCCC1  Human Cav 2.2 channels (Homo sapiens)         =                  5.58
 7  Cc1nc(S(=O)(=O)N[C@H]2C[C@H](C(C)(C)S(=O)(=O)c3cccc(C(F)(F)F)c3)C2)cn1C  Human Cav 2.2 channels (Homo sapiens)         =                  5.06
 8  N[C@@H]1CCCC[C@@H]1C(=O)NC[C@H]1C[C@H](S(=O)(=O)c2cccc(Cl)c2)C1  Human Cav 2.2 channels (Homo sapiens)         ≤                  5.00
 9  CC(C)([C@H]1C[C@H](NC(=O)c2ccc(C(F)(F)F)nc2)C1)S(=O)(=O)c1cccc(C(F)(F)F)c1  Human Cav 2.2 channels (Homo sapiens)         =                  6.31
10  CC(C)([C@H]1C[C@H](C(=O)Nc2ccc(C(F)(F)F)cn2)C1)S(=O)(=O)c1cccc(C(F)(F)F)c1  Human Cav 2.2 channels (Homo sapiens)         =                  6.89
11  CC(C)(C[C@H]1C[C@@H](NC(=O)CC2(N)CCCCC2)C1)S(=O)(=O)c1cccc(C(F)(F)F)c1  Human Cav 2.2 channels (Homo sapiens)         =                  6.00
12  O=S(=O)(c1cccc(OC(F)(F)F)c1)[C@H]1C[C@@H](CNc2ccnc(C(F)(F)F)n2)C1  Human Cav 2.2 channels (Homo sapiens)         =                  5.73
13  CC(C)([C@H]1C[C@H](C(=O)Nc2ccc(C(F)(F)F)cc2Cl)C1)S(=O)(=O)c1cccc(C(F)(F)F)c1  Human Cav 2.2 channels (Homo sapiens)         =                  6.57
14  O=C(NC[C@H]1C[C@H](S(=O)(=O)c2cccc(OC(F)(F)F)c2)C1)c1ccc(C(F)(F)F)nc1  Human Cav 2.2 channels (Homo sapiens)         =                  6.11
15  CC(C)(C[C@H]1C[C@@H](NC(=O)c2ccc(Cl)cn2)C1)S(=O)(=O)c1cccc(C(F)(F)F)c1  Human Cav 2.2 channels (Homo sapiens)         =                  7.30
16  CC(C)([C@H]1C[C@H](NS(=O)(=O)c2ccc(C(F)(F)F)nc2)C1)S(=O)(=O)c1cc(F)cc(C(F)(F)F)c1  Human Cav 2.2 channels (Homo sapiens)         =                  5.93
17  CC(C)([C@H]1C[C@H](NC(=O)c2ccnc(C(F)(F)F)c2)C1)S(=O)(=O)c1cccc(C(F)(F)F)c1  Human Cav 2.2 channels (Homo sapiens)         =                  6.51
18  CC(C)([C@H]1C[C@@H](NS(=O)(=O)c2ccc(C(F)(F)F)nc2)C1)S(=O)(=O)c1cc(F)cc(C(F)(F)F)c1  Human Cav 2.2 channels (Homo sapiens)         =                  6.12
19  CC(C)(C[C@H]1C[C@H](NC(=O)c2ccc(C(F)(F)F)cc2)C1)S(=O)(=O)c1cccc(C(F)(F)F)c1  Human Cav 2.2 channels (Homo sapiens)         =                  6.96
20  CC(C)([C@H]1C[C@@H](NS(=O)(=O)c2ccc(Cl)c(F)c2)C1)S(=O)(=O)c1cc(F)cc(C(F)(F)F)c1  Human Cav 2.2 channels (Homo sapiens)         =                  6.09
21  O=C(NC[C@H]1C[C@H](S(=O)(=O)c2cccc(Cl)c2)C1)c1ccc(Cl)cn1  Human Cav 2.2 channels (Homo sapiens)         =                  5.25
22  CC(C)(C[C@H]1C[C@H](NC(=O)[C@H]2CCCC[C@@H]2N)C1)S(=O)(=O)c1cccc(C(F)(F)F)c1  Human Cav 2.2 channels (Homo sapiens)         =                  5.84
23  CC(C)([C@H]1C[C@@H](NC(=O)c2cc(C(F)(F)F)n[nH]2)C1)S(=O)(=O)c1cccc(OC(F)(F)F)c1  Human Cav 2.2 channels (Homo sapiens)         =                  6.06
24  CC(C)(C[C@H]1C[C@H](NC(=O)c2ccc(OCC(F)(F)F)nc2)C1)S(=O)(=O)c1cccc(C(F)(F)F)c1  Human Cav 2.2 channels (Homo sapiens)         =                  7.05
25  CC(C)([C@H]1C[C@@H](NC(=O)c2ccc(S(C)(=O)=O)cc2Cl)C1)S(=O)(=O)c1cccc(C(F)(F)F)c1  Human Cav 2.2 channels (Homo sapiens)         =                  6.19
26  CNC1(CC(=O)NCc2ccc(S(=O)(=O)c3cccc(C(F)(F)F)c3)cc2)CCCCC1  Human Cav 2.2 channels (Homo sapiens)         =                  6.21

Origin of values: patent US20120245137A1
